Where do the numbers come from? From ChEMBL document CHEMBL3351608.

- assay.text: Aqueous solubility of the compound
- Format: physicochemical
- experimental.context: buffer
Listing of entries alongside the reported log10(solubility).
measured.attribute: log10(solubility) (log10 of the value in µM)

[[record]]
molecule = "COCCN(C1CCN(Cc2c(-c3ccccc3)[nH]c3c(C)cccc23)C1)S(C)(=O)=O (stereo unspecified)"
recorded_number = 0.73

[[record]]
molecule = "O=S(=O)(NC1CCN(Cc2ccncc2)CC1)c1ccc(-n2cccn2)cn1"
recorded_number = 3.00

[[record]]
molecule = "O=S(=O)(NC1CCN(Cc2ccncc2)CC1)c1ccc(-n2cccn2)cc1"
recorded_number = 2.17

[[record]]
molecule = "Cc1cccc2c(CN3CCCC3)c(-c3ccccc3)[nH]c12"
recorded_number = 2.88

[[record]]
molecule = "Cc1cc(-n2cccn2)ccc1S(=O)(=O)NC1CCN(Cc2ccncc2)CC1"
recorded_number = 1.82

[[record]]
molecule = "COCCN(C1CCN(Cc2c(-c3ccccc3)[nH]c3c(OC)cccc23)C1)S(C)(=O)=O (stereo unspecified)"
recorded_number = 2.01


---

- measured.target: Enoyl-[acyl-carrier-protein] reductase [NADH] (Mycobacterium tuberculosis, UniProt P9WGR1)
- Sequence (P9WGR1 whole entry): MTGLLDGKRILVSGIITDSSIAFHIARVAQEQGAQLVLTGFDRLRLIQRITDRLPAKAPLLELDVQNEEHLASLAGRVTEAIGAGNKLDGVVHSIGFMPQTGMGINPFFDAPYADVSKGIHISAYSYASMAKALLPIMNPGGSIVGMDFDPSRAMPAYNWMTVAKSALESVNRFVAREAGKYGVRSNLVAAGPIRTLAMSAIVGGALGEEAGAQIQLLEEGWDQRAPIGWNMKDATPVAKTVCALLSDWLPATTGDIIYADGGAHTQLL
measured.attribute: IC50

[[record]]
molecule = "COCCN(C1CCN(Cc2c(-c3ccccc3)[nH]c3c(C)cccc23)C1)S(C)(=O)=O (configuration not stated)"
result = "> 100 µM"

[[record]]
molecule = "O=S(=O)(NC1CCN(Cc2ccncc2)CC1)c1ccc(-n2cccn2)cc1"
result = "> 100 µM"


---

- assay.text: Lipophilicity, log D of the compound
- Type: physicochemical
- experimental.context: octanol/water
Listing of entries alongside the reported logD.
measured.attribute: logD

[[record]]
compound = "O=S(=O)(NC1CCN(Cc2ccncc2)CC1)c1ccc(-n2cccn2)cc1"
measured_attribute = "logD"
recorded_number = 2.6

[[record]]
compound = "Cc1cc(-n2cccn2)ccc1S(=O)(=O)NC1CCN(Cc2ccncc2)CC1"
measured_attribute = "logD"
recorded_number = 2.3

[[record]]
compound = "O=S(=O)(NC1CCN(Cc2ccncc2)CC1)c1ccc(-n2cccn2)cn1"
measured_attribute = "logD"
recorded_number = 1.7

[[record]]
compound = "COCCN(C1CCN(Cc2c(-c3ccccc3)[nH]c3c(OC)cccc23)C1)S(C)(=O)=O (stereo unspecified)"
measured_attribute = "logD"
recorded_number = 2.8

[[record]]
compound = "Cc1cccc2c(CN3CCCC3)c(-c3ccccc3)[nH]c12"
measured_attribute = "logD"
recorded_number = 1.8

[[record]]
compound = "COCCN(C1CCN(Cc2c(-c3ccccc3)[nH]c3c(C)cccc23)C1)S(C)(=O)=O (stereo unspecified)"
measured_attribute = "logD"
recorded_number = 3


---

- System: Mycobacterium tuberculosis
- assay.text: Bactericidal activity against Mycobacterium tuberculosis H37Rv after 5 days
- Assay type: functional
- experimental.context: 120 h
measured.attribute: MBC (µM)

[[record]]
compound = "COCCN(C1CCN(Cc2c(-c3ccccc3)[nH]c3c(C)cccc23)C1)S(C)(=O)=O (centres undefined)"
measured_attribute = "MBC"
unit_of_measure = "µM"
recorded_number = 3.8

[[record]]
compound = "O=S(=O)(NC1CCN(Cc2ccncc2)CC1)c1ccc(-n2cccn2)cc1"
measured_attribute = "MBC"
unit_of_measure = "µM"
recorded_number = 50

[[record]]
compound = "Cc1cc(-n2cccn2)ccc1S(=O)(=O)NC1CCN(Cc2ccncc2)CC1"
measured_attribute = "MBC"
unit_of_measure = "µM"
recorded_number = 1.6

[[record]]
compound = "Cc1cccc2c(CN3CCC(NS(C)(=O)=O)C3)c(-c3ccccc3)[nH]c12 (racemic)"
measured_attribute = "MBC"
unit_of_measure = "µM"
recorded_number = 1.6

